Target chain: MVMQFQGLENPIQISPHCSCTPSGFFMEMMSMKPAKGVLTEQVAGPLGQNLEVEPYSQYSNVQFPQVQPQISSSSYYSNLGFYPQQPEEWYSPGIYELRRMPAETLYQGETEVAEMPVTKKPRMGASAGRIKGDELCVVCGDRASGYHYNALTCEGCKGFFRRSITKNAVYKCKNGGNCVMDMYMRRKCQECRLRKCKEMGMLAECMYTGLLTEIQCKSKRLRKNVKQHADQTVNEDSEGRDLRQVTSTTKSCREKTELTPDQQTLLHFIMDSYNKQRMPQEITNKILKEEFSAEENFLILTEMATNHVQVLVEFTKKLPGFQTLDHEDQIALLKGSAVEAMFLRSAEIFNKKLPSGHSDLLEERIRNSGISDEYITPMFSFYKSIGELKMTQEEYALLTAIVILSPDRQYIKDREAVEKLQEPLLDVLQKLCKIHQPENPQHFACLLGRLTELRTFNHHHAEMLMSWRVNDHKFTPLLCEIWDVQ
Measured parameter: IC50 (µM)

(P) Cc1cc(OCc2c(-c3c(Cl)ccc(=O)n3C)noc2C(C)Cl)ccc1-c1ccc2c(C(=O)O)cn(C)c2c1 (stereo not drawn) [3-aryl isoxazole analog, 7f]
(Q) Cc1cc(OCc2c(-c3[nH]c(=O)ccc3Cl)noc2C(C)Cl)ccc1-c1ccc2c(C(=O)O)cn(C)c2c1 (stereo not drawn) [3-aryl isoxazole analog, 7h]
Input line: Dear colleague, could you let me know whether P or Q has the lower recorded IC50? Thanks. Provide the label of your selected option as the answer.
Output line: P
